Catalogue of Ki values
- study target: human PDE2A1 (Homo sapiens (Human), UniProt O00408)
- Sequence (O00408 other isoform, or with tags, fused parts or gaps): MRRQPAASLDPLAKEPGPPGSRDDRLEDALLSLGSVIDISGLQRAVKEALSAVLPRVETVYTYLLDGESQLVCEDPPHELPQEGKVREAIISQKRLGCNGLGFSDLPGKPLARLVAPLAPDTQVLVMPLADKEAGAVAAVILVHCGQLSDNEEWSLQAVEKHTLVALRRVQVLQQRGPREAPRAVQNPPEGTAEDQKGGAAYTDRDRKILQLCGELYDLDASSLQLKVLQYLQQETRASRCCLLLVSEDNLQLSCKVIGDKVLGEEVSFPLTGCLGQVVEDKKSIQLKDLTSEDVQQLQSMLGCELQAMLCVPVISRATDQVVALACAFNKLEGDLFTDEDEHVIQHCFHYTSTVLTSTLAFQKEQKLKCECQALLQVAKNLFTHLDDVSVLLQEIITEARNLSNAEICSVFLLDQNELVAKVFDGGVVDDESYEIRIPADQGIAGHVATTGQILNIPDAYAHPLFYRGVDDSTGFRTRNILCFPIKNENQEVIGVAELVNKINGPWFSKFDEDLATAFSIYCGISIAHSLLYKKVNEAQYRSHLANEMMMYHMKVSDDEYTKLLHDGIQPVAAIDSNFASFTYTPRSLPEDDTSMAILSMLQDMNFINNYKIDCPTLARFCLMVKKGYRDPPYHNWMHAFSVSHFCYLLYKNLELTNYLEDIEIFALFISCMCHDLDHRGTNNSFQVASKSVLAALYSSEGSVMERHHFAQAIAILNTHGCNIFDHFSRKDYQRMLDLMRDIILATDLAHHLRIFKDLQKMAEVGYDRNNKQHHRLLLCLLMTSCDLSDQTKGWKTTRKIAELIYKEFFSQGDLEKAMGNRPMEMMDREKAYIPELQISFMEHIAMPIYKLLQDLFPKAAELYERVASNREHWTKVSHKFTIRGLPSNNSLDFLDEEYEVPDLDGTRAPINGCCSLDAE
- assay comment: IMAP FP PDE selectivity panel, human PDE2A1
- Type: biochemical
- conditions: Human PDE2, Lab B; read-out: Human PDE2 Ki (nM) - Lab B

For orientation, consider the following solved cases.
| compound | measured |
| --- | --- |
| Cc1nc(C(=O)N[C@H](C)c2ccc(S(F)(F)(F)(F)F)cc2)cc(=O)[nH]1 | 27 nM |
| Cc1nc(C(=O)NC2(c3ccc(C(F)(F)F)c(F)c3)CC2)cc(=O)[nH]1 | 16 nM |
| CC(C)(C)[C@@H](NC(=O)c1cc(=O)[nH]c(C2CC2)n1)c1ccc(CC(F)(F)F)cc1 | 6.4 nM |
| COc1cc(C(F)(F)F)ccc1C(C)(C)NC(=O)c1cc(=O)[nH]c(-c2ncccn2)n1 | 741 nM |
| Cc1nc(C(=O)N[C@H](C)c2ccc(S(F)(F)(F)(F)F)cc2F)cc(=O)[nH]1 [Example 673] | 32 nM |
| CC(NC(=O)c1cc(=O)[nH]c(-c2ccccc2)n1)c1ccc(C(C)(C)C)cc1 (centres unmarked) | 40 nM |
| Cc1nc(C(=O)NC2(c3ccc(C(F)(F)F)cc3)CC2(C)C)cc(=O)[nH]1 (centres unmarked) | 7 nM |

Shifting focus to the compound that follows.
Reported Ki for COc1ccc(Cc2nc(C(=O)N[C@@H](c3ccc(SC(F)(F)F)c(F)c3)C3CC3)cc(=O)[nH]2)cc1F was 3.6 nM
